The measurements presented in this section are drawn from ChEMBL document CHEMBL1250441.

Test system: SK-BR-3
test.description: Cytotoxicity against human SKBR3 cells after 2 days
Assay type: functional
particulars: SK-BR-3, 48 h, read-out: ED50 (the source's name)
EC50 less than 0.1 µg/mL is Satisfied; EC50 greater than or equal to 0.1 µg/mL is Not satisfied.

>>> category("CCN(CC)[C@H]1CCc2cc(OC)c(OC)c(OC)c2-c2ccc(SC)c(=O)cc21.O=C(O)CCC(=O)O")
"Not satisfied"
>>> category("COc1cc2c(c(OC)c1O)-c1ccc(SC)c(=O)cc1[C@@H](N(C)S(=O)(=O)c1ccccc1[N+](=O)[O-])CC2")
"Not satisfied"
>>> category("CCCN([C@H]1CCc2cc(OC)c(OC)c(OC)c2-c2ccc(SC)c(=O)cc21)S(=O)(=O)c1ccccc1[N+](=O)[O-]")
"Not satisfied"
>>> category("COc1cc2c(c(OC)c1OC)-c1ccc(SC)c(=O)cc1[C@@H](NS(=O)(=O)c1ccccc1[N+](=O)[O-])CC2")
"Satisfied"
>>> category("CCN[C@H]1CCc2cc(OC)c(OC)c(OC)c2-c2ccc(SC)c(=O)cc21")
"Satisfied"
>>> category("COc1cc2c(c(OC)c1OC)-c1ccc(SC)c(=O)cc1[C@@H](N(C)S(=O)(=O)c1ccccc1[N+](=O)[O-])CC2")
"Satisfied"

---

test.description: Inhibition of tubulin assembly
# IC50 annotations
parameter: IC50

>>> observed("CN[C@H]1CCc2cc(OC)c(OP(=O)(O)O)c(OC)c2-c2ccc(SC)c(=O)cc21")
"> 40 µM"
>>> observed("CN[C@H]1CCc2cc(OC)c(O)c(OC)c2-c2ccc(SC)c(=O)cc21")
"> 40 µM"
>>> observed("CCCN([C@H]1CCc2cc(OC)c(OC)c(OC)c2-c2ccc(SC)c(=O)cc21)S(=O)(=O)c1ccccc1[N+](=O)[O-]")
"> 40 µM"
